Here, each record is paired with measured Activity data.
- Test system: MCF7
- experiment: Induction of apoptosis in estrogen receptor positive human MCF7 cells at 15 uM after 24 hrs by TUNEL assay
- Assay type: functional
Only the number, expressed in %, is required.

Some solved cases for reference:
[[record]]
compound_structure_string = "CO[C@H](C(=O)[C@@H](O)[C@@H](C)O)[C@@H]1Cc2cc3cc(O[C@H]4C[C@@H](O)[C@H](O)[C@@H](C)O4)c(C)c(O)c3c(O)c2C(=O)[C@H]1O[C@H]1C[C@@H](O[C@H]2C[C@@H](O[C@H]3C[C@](C)(O)[C@H](O)[C@@H](C)O3)[C@@H](O)[C@@H](C)O2)[C@H](O)[C@@H](C)O1"
recorded_measurement = 26.3

[[record]]
compound_structure_string = "CO[C@H](C(=O)[C@@H](O)[C@@H](C)O)[C@@H]1Cc2cc3cc(O[C@H]4C[C@@H](O[C@H]5C[C@@H](O)[C@H](O)[C@@H](C)O5)[C@H](O)[C@@H](C)O4)c(C)c(O)c3c(O)c2C(=O)[C@H]1O[C@H]1C[C@@H](O[C@H]2C[C@@H](O[C@H]3C[C@H](O)[C@H](O)[C@@H](C)O3)[C@@H](O)[C@@H](C)O2)[C@H](O)[C@@H](C)O1"
recorded_measurement = 64.8

[[record]]
compound_structure_string = "CO[C@H](C(=O)[C@@H](O)[C@@H](C)O)[C@@H]1Cc2cc3cc(O[C@H]4C[C@@H](O[C@H]5C[C@@H](O)[C@H](O)[C@@H](C)O5)[C@H](O)[C@@H](C)O4)c(C)c(O)c3c(O)c2C(=O)[C@H]1O[C@H]1C[C@@H](O[C@H]2C[C@](C)(O)[C@H](O)[C@@H](C)O2)[C@H](O)[C@@H](C)O1"
recorded_measurement = 50.3


Let us move to another entry and its Activity.
q: So what's the measured Activity for this one? `CO[C@H](C(=O)[C@@H](O)[C@@H](C)O)[C@@H]1Cc2cc3cc(O[C@H]4C[C@@H](O[C@H]5C[C@@H](O)[C@H](O)[C@@H](C)O5)[C@H](O)[C@@H](C)O4)c(C)c(O)c3c(O)c2C(=O)[C@H]1O[C@H]1C[C@@H](O[C@H]2C[C@@H](O[C@H]3C[C@](C)(O)[C@H](O)[C@@H](C)O3)[C@@H](O)[C@H](C)O2)[C@H](O)[C@@H](C)O1`
a: 3.9
